Data provenance is patent US20220372138A1.

# Lookup of reported Kd keyed by entry
# target.of.assay: T1, extracellular domain (ECD) of human IGSF11 (VSIG3), recombinant (human, UniProt Q5DX21 23-241)
# T1 construct: biotinylated where captured on streptavidin; tags of the reagent not always stated; also called IGSF11 (ECD domain); ECD-IGSF11
# T1 sequence: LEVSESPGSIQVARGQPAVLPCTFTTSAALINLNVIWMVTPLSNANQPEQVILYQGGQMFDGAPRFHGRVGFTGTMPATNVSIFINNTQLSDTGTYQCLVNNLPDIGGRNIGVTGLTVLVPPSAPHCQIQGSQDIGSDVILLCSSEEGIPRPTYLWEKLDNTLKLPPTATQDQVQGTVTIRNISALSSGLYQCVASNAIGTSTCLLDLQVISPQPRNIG
# assay.notes: BLI
observable: Kd

• A-012 (IgG1 format) (antibody, V domains shown, human IgG1 format) VH: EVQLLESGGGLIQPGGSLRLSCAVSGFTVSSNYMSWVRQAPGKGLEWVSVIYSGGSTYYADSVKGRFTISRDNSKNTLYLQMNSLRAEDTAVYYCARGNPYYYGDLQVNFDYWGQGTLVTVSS VL: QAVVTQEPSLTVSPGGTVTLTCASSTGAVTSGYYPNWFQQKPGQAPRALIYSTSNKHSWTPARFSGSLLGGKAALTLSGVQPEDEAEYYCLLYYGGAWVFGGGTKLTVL = 1 to 10 nM
• A-011 (IgG1 format) (antibody, V domains shown, human IgG1 format) VH: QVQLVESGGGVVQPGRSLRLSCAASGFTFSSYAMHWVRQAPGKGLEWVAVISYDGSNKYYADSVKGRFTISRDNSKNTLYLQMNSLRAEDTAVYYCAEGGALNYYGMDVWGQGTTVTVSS VL: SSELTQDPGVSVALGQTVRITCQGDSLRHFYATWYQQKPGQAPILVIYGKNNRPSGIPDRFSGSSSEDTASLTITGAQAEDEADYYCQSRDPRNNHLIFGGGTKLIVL = 10 to 20 nM
• A-006 (IgG1 format) (antibody, V domains shown, human IgG1 format; also called A-006-like ABP) VH: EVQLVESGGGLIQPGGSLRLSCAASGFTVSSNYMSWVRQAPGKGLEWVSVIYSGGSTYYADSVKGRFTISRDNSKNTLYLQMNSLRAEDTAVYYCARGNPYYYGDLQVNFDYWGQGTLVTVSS VL: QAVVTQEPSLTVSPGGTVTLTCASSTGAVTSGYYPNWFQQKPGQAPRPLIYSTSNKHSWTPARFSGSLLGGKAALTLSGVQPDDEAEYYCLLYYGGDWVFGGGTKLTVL = 1 to 10 nM
• A-026 (IgG1 format) (antibody, V domains shown, human IgG1 format) VH: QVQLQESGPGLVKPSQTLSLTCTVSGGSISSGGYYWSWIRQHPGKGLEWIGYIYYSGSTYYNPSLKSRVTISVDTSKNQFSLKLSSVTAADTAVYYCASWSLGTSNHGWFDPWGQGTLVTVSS VL: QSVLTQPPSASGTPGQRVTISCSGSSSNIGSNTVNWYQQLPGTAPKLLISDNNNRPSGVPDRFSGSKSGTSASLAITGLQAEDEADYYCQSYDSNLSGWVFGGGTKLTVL = 20 to 30 nM
